B1: CPEB3 Ribozyme (parent)
chain: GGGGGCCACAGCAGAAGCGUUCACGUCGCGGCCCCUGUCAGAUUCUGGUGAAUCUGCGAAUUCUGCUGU

variants of: B1; experiment: self-cleavage, relative activity (ratio to wild type); higher = more cleavage; co-transcriptional
measured-property: self-cleavage
Write the number on its own, no unit after it.

Task: Can you look up the measured self-cleavage of `GGGGGCCACAGCACAAUCGUUCACGUCGCGGCCCCUGUCAGAUUCUGGUGAAUCUGCGAAUUCUGCUGU` for me?
Result: 0.138

Task: Can you look up the measured self-cleavage of `AGGGGCCACAGCAGAAGCCUUCACGUCGCGGCCCCUGUCAGAUUCUGGUGAAUCUGCGAAUUCUGCUGU` for me?
Result: 0.0333

Task: Can you look up the measured self-cleavage of `GGGGCCCACAGCAGAAGCGUUCACGUCGCGGCCCCUGUCAGAUUCUGGUGAACCUGCGAAUUCUGCUGU` for me?
Result: 0.151

Task: Can you look up the measured self-cleavage of `GGGGGCCACAGCAGAAGCGUUCACUUCGCGGCCCCUGUCAGAUUCUGGUGAAUCUGCGAAUUCGGCUGU` for me?
Result: 0.189

Task: Can you look up the measured self-cleavage of `GGGGGCCACAGCAGAAGCGUUCACGUCGCGGCCCCAGUCAGAUUCUGGUGAAUCUGCAAAUUCUGCUGU` for me?
Result: 0.205

Task: Can you look up the measured self-cleavage of `GGGGGCCACAGCAGAAGCGUUCACGUCGCGGCCCCUGUCAGAUUAUCGUGAAUCUGCGAAUUCUGCUGU` for me?
Result: 0.995

Task: Can you look up the measured self-cleavage of `GGGGGCCACAGCAGAAGCGUUAACGUCGCGGCCCCUGUCAGAUUCUGGUGAAUCUGCCAAUUCUGCUGU` for me?
Result: 0.184

Task: Can you look up the measured self-cleavage of `GGGGGCCACAGCAGAAGCGUUCACGUCGCGGCCCCUGUCAGAUUCUGGUGAAUCUUCGAAUUCGGCUGU` for me?
Result: 0.753

Task: Can you look up the measured self-cleavage of `GGGGUCCACAGCAGAAGCGUUCACGUCGCGGCCCCUGUCAAAUUCUGGUGAAUCUGCGAAUUCUGCUGU` for me?
Result: 0.12

Task: Can you look up the measured self-cleavage of `GGGGGCCACAGCAGAAGCGUUCACGUCGCGGCCCCUCUCAGAUUCUCGUGAAUCUGCGAAUUCUGCUGU` for me?
Result: 0.18

Task: Can you look up the measured self-cleavage of `AGGGGCCACAGCAGAAGCGUUCACGUGGCGGCCCCUGUCAGAUUCUGGUGAAUCUGCGAAUUCUGCUGU` for me?
Result: 0.0668

Task: Can you look up the measured self-cleavage of `GGGGGCCACAGCAGAAGCGUUCACGUCGCGGACCCGGUCAGAUUCUGGUGAAUCUGCGAAUUCUGCUGU` for me?
Result: 0.263

Task: Can you look up the measured self-cleavage of `GGGGGCCACAGCAAAAGCGUUCACGUCGCGGCCCCUGUCAGAUUCUGGUGAAUCUGCGAAUUCUGCUGG` for me?
Result: 0.934

Task: Can you look up the measured self-cleavage of `GGGGGCCACAGUAGCAGCGUUCACGUCGCGGCCCCUGUCAGAUUCUGGUGAAUCUGCGAAUUCUGCUGU` for me?
Result: 0.389

Task: Can you look up the measured self-cleavage of `GGGGGCCACAGCAGAAGCGUCCACGUCGCGCCCCCUGUCAGAUUCUGGUGAAUCUGCGAAUUCUGCUGU` for me?
Result: 0.16

Task: Can you look up the measured self-cleavage of `GGGGGCCACAGCAGAAGCGUUCACGUGGCGGCCCCUGUCAGAUUCUGGUGAAUCUGCGAAUUCUUCUGU` for me?
Result: 0.164

Task: Can you look up the measured self-cleavage of `GGGGGCCACAGCAGAAGCGUUCACGUCGCGGCCCCUGUCAGAUUCUGGAGGAUCUGCGAAUUCUGCUGU` for me?
Result: 1.05

Task: Can you look up the measured self-cleavage of `GGGGGCCUCAGUAGAAGCGUUCACGUCGCGGCCCCUGUCAGAUUCUGGUGAAUCUGCGAAUUCUGCUGU` for me?
Result: 1.05
